Taken from patent US20220267421A1.

Exercise: for every item that follows, state its recorded log10 of EC50.
target: T1, cell surface human mesothelin (MSLN) (human, UniProt Q13421 296-598); experiment: flow cytometry, NCI-H226 cells + 20 nM soluble MSLN
T1 construct: whole, on cells; also called cell surface MSLN
T1 sequence (Q13421 other isoform, or with tags, fused parts or gaps limits assumed): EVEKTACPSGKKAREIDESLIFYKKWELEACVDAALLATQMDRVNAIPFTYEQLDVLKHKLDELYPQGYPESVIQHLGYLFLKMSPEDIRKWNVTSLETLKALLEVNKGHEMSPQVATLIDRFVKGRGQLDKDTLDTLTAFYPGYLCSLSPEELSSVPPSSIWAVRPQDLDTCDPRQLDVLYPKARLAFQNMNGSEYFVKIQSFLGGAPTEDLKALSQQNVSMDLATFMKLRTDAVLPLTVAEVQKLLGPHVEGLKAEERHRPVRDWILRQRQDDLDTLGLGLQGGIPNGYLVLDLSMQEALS
Values below are the log10 of the recorded EC50, with nM as the unit.

# BINDER, log10 of EC50
records = [
    ("FS22-053-008-AA/FS28-256 (bispecific antibody, human IgG1, kappa, L234A L235A, V domains shown) VH: EVQLLESGGGLVQPGGSLRLSCAASGFTFTNTYMSWVRQAPGKGLEWVSNISPTYSTTNYADSVKGRFTISRDNSKNTLYLQMNSLRAEDTAVYYCARYNSYQGGLDYWGQGTLVTVSS VL: EIVLTQSPGTLSLSPGERATLSCRASQSVSSSYLAWYQQKPGQAPRLLIYGASSRATGIPDRFSGSGSGTDFTLTISRLEPEDFAVYYCQQSYYYPITFGQGTKVEIKR", 1.60),
]

Kindly give each listed record's log10 of EC50.
1. FS22-053-008-AA/FS28-024 mAb^2 (bispecific antibody, human IgG1, kappa, L234A L235A, V domains shown, also called FS28-024 (in FS22-053-008-AA mAb^2 format); FS28-024 (in CD137 mAb2 format)) VH: EVQLLESGGGLVQPGGSLRLSCAASGFTLSYSSMSWVRQAPGKGLEWVSFITPSTGYTHYADSVKGRFTISRDNSKNTLYLQMNSLRAEDTAVYYCARRALTFDYWGQGTLVTVSS VL: EIVLTQSPGTLSLSPGERATLSCRASQSVSSSYLAWYQQKPGQAPRLLIYGASSRATGIPDRFSGSGSGTDFTLTISRLEPEDFAVYYCQQASSYPLTFGQGTKVEIKR
2. FS22-053-008-AA/FS28-024-051 mAb^2 (bispecific antibody, human IgG1, kappa, L234A L235A, V domains shown, also called FS28-024-51) VH: EVQLLESGGGLVQPGGSLRLSCAASGFTLSYSSMSWVRQAPGKGLEWVSFITPSTGYTHYADSVKGRFTISRDNSKNTLYLQMNSLRAEDTAVYYCARRALIFDYWGQGTLVTVSS VL: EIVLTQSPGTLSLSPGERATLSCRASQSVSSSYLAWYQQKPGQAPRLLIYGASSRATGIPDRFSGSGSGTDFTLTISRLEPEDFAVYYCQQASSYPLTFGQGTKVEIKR
3. FS22-053-008-AA/FS28-256-026 mAb^2 (bispecific antibody, human IgG1, kappa, L234A L235A, V domains shown) VH: EVQLLESGGGLVQPGGSLRLSCAASGFTFTQTYMSWVRQAPGKGLEWVSNISPTYSTTNYADSVKGRFTISRDNSKNTLYLQMNSLRAEDTAVYYCARYNAYQIGLDYWGQGTLVTVSS VL: EIVLTQSPGTLSLSPGERATLSCRASQSVSSSYLAWYQQKPGQAPRLLIYGASSRATGIPDRFSGSGSGTDFTLTISRLEPEDFAVYYCQQALGYPHTFGQGTKVEIKR
4. FS22-053-008-AA/FS28-256-014 mAb^2 (bispecific antibody, human IgG1, kappa, L234A L235A, V domains shown) VH: EVQLLESGGGLVQPGGSLRLSCAASGFTFTDTYMSWVRQAPGKGLEWVSNISPTYSTTNYADSVKGRFTISRDNSKNTLYLQMNSLRAEDTAVYYCARYNAYAAGLDYWGQGTLVTVSS VL: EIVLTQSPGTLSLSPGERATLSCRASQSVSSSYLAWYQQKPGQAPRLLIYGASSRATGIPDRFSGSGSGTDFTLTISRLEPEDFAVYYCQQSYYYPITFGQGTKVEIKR

Solution:
1: 0.70; 2: 0.87; 3: 0.66; 4: 0.43
